Biological target: T1, human CD24 (human, UniProt P25063 27-59, heavily glycosylated, GPI-anchored (as described in the background))
T1 construct: whole, on cells; Target of all cell-based FACS assays; also called hCD24; Cluster of differentiation 24
T1 chain (looked up): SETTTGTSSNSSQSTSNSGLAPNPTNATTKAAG
Experiment: FACS, MCF7 cells
Observable: Max MFI
Answers are plain numbers.

Binder | Observed Result
ch110D4G4-hIgG4 (antibody, V domains shown, chimeric; also called chAb110D4G4) VH: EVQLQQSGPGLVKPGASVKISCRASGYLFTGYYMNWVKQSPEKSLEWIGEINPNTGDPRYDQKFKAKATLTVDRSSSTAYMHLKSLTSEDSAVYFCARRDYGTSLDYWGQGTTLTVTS VL: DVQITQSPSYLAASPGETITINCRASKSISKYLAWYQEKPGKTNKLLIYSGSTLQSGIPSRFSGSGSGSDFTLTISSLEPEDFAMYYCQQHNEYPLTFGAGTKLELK | 22700

Read the next record carefully.
Prompt: Max MFI for SN3 (antibody, V domains shown) VH: QVQLKESGPGLVAPSQSLSITCTVSGFSLTSYGVHWVRQPPGKGLEWLGVIWAGGSTNYNSALMSRLSISKDNSKSQVFLKMNSLQTDDTAMYYCAVYYGYLFFAYWGQGTLVTVSA VL: ENVLTQSPAIMSASPGEKVTMTCSASSSVSYMHWYQQKSTTSPKLWIYDTSKLASGVPGRFSGSGSGNSYSLTISSMEAEDVATYYCFQGSGYPLTFGGGTKLEIK ?
Response: 761
